Where do these numbers come from? They come from ChEMBL document CHEMBL4354837.

Molecular target: Melanocyte-stimulating hormone receptor (Mus musculus) (UniProt Q01727)
Sequence (Q01727 whole entry, looked up): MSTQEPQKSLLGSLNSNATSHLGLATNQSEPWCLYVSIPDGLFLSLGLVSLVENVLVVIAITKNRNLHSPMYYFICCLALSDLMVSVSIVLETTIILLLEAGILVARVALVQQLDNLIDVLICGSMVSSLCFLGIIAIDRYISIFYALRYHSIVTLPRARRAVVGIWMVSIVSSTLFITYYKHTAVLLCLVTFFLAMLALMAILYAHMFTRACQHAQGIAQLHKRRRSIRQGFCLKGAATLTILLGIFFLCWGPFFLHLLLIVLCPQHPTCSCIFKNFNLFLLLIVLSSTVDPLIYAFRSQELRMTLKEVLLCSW
Assay: Agonist activity at mouse melanocortin receptor 1 expressed in HEK293 cells assessed as stimulation of cAMP accumulation at 100 uM incubated for 2 hrs by cAMP Alpha-screen assay relative to control
Format: functional, cell-based
Square brackets hold non-standard residues; d marks the D form. Peptide text beside a SMILES is read from it. Dap = NC[C@H](N)C(=O)O
For each record, write down the corresponding Activity.
Numbers only, in %.

C[C@@H]1NC(=O)[C@H](CN)NC(=O)[C@H](Cc2ccccc2)NC(=O)[C@H](Cc2ccccc2)NC(=O)[C@H](Cc2c[nH]cn2)NC(=O)[C@@H]2CCCN2C(=O)[C@H]2CCCN2C(=O)[C@H](Cc2ccccc2)NC1=O (cyclo(PHFF[Dap]AF[dP])) ... 56
CC(C)[C@@H]1NC(=O)[C@H](CN)NC(=O)[C@H](Cc2ccccc2)NC(=O)[C@H](Cc2ccccc2)NC(=O)[C@H](CCCNC(=N)N)NC(=O)[C@@H]2CCCN2C(=O)[C@H]2CCCN2C(=O)[C@H](Cc2ccccc2)NC1=O ... 79
C[C@@H]1NC(=O)[C@H](CC(N)=O)NC(=O)[C@H](Cc2ccccc2)NC(=O)[C@H](Cc2ccccc2)NC(=O)[C@H](Cc2c[nH]cn2)NC(=O)[C@@H]2CCCN2C(=O)[C@H]2CCCN2C(=O)[C@H](Cc2ccccc2)NC1=O ... 23
C[C@@H]1NC(=O)[C@H](CN)NC(=O)[C@H](Cc2ccccc2)NC(=O)[C@H](Cc2ccc(O)cc2)NC(=O)[C@H](CCCNC(=N)N)NC(=O)[C@@H]2CCCN2C(=O)[C@H]2CCCN2C(=O)[C@H](Cc2ccccc2)NC1=O (cyclo(RYF[Dap]AF[dP]P)) ... 48
C[C@@H]1NC(=O)[C@H](CC(N)=O)NC(=O)[C@H](Cc2ccccc2)NC(=O)[C@H](Cc2ccccc2)NC(=O)[C@H](CS)NC(=O)[C@@H]2CCCN2C(=O)[C@H]2CCCN2C(=O)[C@H](Cc2ccccc2)NC1=O (cyclo(PCFFNAF[dP])) ... 46

Attention now turns to another entry.
IN: GET /values?readout=Activity&item= CC(C)[C@@H]1NC(=O)[C@H](CC(N)=O)NC(=O)[C@H](Cc2ccccc2)NC(=O)[C@H](Cc2ccccc2)NC(=O)[C@H](CCCNC(=N)N)NC(=O)[C@@H]2CCCN2C(=O)[C@H]2CCCN2C(=O)[C@H](Cc2ccccc2)NC1=O (cyclo(PRFFNVF[dP]))
OUT: 23
